- system.under.test: MAP3K7 TAB1 (human) (UniProt Q15750+O43318)
- Sequence (O43318 whole entry, looked up): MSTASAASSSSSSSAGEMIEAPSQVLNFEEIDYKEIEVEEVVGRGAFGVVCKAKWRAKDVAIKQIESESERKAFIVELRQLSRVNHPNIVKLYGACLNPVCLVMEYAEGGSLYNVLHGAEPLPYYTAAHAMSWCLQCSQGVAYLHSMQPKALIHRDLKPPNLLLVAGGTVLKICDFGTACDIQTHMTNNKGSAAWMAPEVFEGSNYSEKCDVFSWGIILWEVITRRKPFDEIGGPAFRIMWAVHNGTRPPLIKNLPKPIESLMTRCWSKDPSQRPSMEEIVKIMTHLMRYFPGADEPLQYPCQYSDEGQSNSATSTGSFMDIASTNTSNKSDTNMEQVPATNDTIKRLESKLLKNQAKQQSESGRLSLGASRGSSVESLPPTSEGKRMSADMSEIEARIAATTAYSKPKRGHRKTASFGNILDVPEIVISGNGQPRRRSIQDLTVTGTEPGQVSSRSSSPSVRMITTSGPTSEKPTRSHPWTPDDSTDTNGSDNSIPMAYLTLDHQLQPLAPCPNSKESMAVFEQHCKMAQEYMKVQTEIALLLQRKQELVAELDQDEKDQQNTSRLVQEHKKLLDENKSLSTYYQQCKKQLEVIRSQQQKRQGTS
- Sequence (Q15750 whole entry, looked up): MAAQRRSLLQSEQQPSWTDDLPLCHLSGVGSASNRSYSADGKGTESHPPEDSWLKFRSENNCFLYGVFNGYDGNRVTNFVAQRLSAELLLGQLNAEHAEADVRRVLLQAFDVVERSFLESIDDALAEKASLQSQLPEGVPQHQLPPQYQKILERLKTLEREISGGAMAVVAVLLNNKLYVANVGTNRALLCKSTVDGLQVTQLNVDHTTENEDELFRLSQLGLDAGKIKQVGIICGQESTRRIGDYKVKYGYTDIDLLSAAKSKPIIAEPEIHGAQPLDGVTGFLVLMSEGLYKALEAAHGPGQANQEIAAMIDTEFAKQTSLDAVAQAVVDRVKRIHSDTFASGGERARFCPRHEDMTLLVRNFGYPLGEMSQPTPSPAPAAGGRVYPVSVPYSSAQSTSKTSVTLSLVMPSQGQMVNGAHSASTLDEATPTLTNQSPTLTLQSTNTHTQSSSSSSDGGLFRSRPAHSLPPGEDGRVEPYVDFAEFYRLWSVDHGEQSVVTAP
- method.notes: radiometric filter-binding kinase assay
- condition.summary: compound 0.1 µM
attribute.measured: residual activity (%)

compound | system.under.test | residual activity (%)
O=C(NCCCNc1nc(Nc2cccc(CN3CCOCC3)c2)ncc1C1CC1)C1CCC1 | MAP3K7 TAB1 (human) (UniProt Q15750+O43318) | 96
CN(C)C/C=C/C(=O)Nc1cccc(C(=O)Nc2ccc(Nc3nccc(-c4cccnc4)n3)cc2)c1 | MAP3K7 TAB1 (human) (UniProt Q15750+O43318) | 67
COc1ccc(N(C(=O)Nc2c(C)cccc2C)c2cc(Nc3ccc(N4CCN(C)CC4)cc3)ncn2)c(OC)c1 | MAP3K7 TAB1 (human) (UniProt Q15750+O43318) | 110
Cc1cccc(-c2nn(C(=S)Nc3ccccc3)cc2-c2ccnc3ccccc23)n1 | MAP3K7 TAB1 (human) (UniProt Q15750+O43318) | 99

[1] O=C(O)c1ccc(-c2c[nH]c3ncc(-c4ccccc4)cc23)cc1C1CCCC1
[2] COc1cc(O)c2c(c1)[C@H]1OC1C[C@H](O)[C@H](O)C(=O)/C=C\C[C@H](C)OC2=O (some centres not stated)
Given the listed items, does 1 or 2 have the lesser reported residual activity? # respond with the chosen item's label
2

[A] C=CC(=O)N1CCC[C@@H](n2nc(-c3ccc(Oc4ccccc4)cc3)c3c(N)ncnc32)C1
[B] CNC(=O)C1[C@H]2O[C@@](C)([C@@H]1N)n1c3ccccc3c3c4c(c5c6ccccc6n2c5c31)C(=O)NC4 (some centres not stated)
Pick one: A or B . Which has the bigger residual activity number? # respond with the chosen item's label
A

----------
- system.under.test: STK11 CAB39 STRADA (human) (UniProt Q9Y376+Q7RTN6+Q15831)
- Sequence (Q15831 whole entry, looked up): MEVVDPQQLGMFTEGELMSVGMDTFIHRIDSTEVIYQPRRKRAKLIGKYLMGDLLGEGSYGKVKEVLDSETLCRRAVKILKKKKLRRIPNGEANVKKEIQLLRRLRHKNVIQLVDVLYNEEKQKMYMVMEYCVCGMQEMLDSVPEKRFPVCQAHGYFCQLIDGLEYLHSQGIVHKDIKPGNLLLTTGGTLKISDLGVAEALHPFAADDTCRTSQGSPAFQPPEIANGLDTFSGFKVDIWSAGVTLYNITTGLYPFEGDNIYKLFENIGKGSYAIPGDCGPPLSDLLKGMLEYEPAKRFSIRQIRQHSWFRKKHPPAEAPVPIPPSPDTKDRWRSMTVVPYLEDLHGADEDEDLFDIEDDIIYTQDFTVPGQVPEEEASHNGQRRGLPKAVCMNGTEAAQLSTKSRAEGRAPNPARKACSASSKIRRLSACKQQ
- Sequence (Q7RTN6 whole entry, looked up): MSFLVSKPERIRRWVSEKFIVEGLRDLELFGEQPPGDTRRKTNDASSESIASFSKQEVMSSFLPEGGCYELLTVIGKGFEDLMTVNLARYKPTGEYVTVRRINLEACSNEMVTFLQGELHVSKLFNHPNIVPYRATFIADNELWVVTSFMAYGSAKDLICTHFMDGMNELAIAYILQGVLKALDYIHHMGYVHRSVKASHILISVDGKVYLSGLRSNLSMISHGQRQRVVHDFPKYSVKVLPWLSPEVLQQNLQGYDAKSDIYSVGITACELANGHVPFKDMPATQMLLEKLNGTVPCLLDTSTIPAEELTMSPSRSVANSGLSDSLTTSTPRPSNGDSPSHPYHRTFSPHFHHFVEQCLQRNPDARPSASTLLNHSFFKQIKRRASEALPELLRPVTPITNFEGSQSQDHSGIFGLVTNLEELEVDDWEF
- Sequence (Q9Y376 whole entry, looked up): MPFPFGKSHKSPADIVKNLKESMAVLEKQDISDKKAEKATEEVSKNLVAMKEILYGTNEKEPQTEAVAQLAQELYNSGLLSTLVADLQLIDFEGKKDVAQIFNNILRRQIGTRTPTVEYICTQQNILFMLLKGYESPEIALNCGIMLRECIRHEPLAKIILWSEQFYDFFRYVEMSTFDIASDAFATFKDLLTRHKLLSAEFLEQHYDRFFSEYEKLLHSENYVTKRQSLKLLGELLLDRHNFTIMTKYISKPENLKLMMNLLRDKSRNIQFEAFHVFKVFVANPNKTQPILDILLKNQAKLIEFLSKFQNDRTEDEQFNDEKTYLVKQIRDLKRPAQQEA
- method.notes: radiometric filter-binding kinase assay
- condition.summary: compound 0.01 µM
attribute.measured: residual activity (%)

compound | residual activity, %
COc1ccc(N(C(=O)Nc2c(C)cccc2C)c2cc(Nc3ccc(N4CCN(C)CC4)cc3)ncn2)c(OC)c1 | 108
COc1cc(O)c2c(c1)[C@H]1OC1C[C@H](O)[C@H](O)C(=O)/C=C\C[C@H](C)OC2=O (stereo not given in full) | 119
CNC(=O)C1[C@H]2O[C@@](C)([C@@H]1N)n1c3ccccc3c3c4c(c5c6ccccc6n2c5c31)C(=O)NC4 (stereo not given in full) | 103
CNc1nc(-c2ccc3c(N)n[nH]c3c2)cc(N2C[C@@H](C(=O)NC3CCCCC3)CC[C@H]2C)n1 | 104
O=C(Nc1nc2cc(C(F)(F)F)cc(NC3CC3)n2n1)c1cccnc1 | 107

----------
- system.under.test: MINK1 (human) (UniProt Q8N4C8)
- Sequence (Q8N4C8 whole entry, looked up): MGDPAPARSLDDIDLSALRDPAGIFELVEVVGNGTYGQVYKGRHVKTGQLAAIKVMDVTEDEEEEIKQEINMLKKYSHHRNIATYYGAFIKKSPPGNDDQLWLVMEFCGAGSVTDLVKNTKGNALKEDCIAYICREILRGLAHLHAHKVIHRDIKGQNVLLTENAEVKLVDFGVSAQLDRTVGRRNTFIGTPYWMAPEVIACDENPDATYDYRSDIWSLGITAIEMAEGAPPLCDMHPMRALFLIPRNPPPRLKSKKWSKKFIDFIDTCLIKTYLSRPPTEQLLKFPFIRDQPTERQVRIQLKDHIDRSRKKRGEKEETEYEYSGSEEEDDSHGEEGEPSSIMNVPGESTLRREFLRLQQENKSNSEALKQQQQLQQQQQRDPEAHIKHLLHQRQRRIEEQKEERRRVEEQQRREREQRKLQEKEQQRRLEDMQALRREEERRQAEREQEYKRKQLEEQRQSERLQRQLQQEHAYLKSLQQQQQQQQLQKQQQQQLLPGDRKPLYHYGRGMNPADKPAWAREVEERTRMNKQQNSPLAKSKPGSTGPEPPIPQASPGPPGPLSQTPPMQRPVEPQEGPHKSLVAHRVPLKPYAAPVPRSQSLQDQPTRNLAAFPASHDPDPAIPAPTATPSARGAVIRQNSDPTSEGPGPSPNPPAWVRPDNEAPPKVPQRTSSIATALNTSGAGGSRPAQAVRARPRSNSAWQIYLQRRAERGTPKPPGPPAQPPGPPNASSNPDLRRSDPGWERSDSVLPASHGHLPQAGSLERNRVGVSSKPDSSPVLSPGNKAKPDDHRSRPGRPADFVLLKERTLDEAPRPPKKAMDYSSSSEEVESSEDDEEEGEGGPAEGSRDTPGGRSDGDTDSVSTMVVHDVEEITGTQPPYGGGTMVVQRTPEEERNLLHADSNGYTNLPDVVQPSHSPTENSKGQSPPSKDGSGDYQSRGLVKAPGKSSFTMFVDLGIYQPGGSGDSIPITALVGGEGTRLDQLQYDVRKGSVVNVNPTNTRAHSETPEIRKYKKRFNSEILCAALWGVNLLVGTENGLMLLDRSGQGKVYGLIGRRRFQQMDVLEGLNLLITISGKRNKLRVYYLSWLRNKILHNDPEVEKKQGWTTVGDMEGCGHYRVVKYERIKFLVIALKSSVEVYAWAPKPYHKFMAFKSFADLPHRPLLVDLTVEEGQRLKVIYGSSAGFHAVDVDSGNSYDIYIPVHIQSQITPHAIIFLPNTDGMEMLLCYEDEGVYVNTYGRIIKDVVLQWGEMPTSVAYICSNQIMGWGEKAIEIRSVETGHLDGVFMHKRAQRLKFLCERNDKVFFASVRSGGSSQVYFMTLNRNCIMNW
- method.notes: radiometric filter-binding kinase assay
- condition.summary: compound 0.01 µM
attribute.measured: residual activity (%)

molecule | attribute.measured | unit | val
COc1ccc(N(C(=O)Nc2c(C)cccc2C)c2cc(Nc3ccc(N4CCN(C)CC4)cc3)ncn2)c(OC)c1 | residual activity | % | 94
O=C(Nc1nc2cc(C(F)(F)F)cc(NC3CC3)n2n1)c1cccnc1 | residual activity | % | 125
CNc1nc(-c2ccc3c(N)n[nH]c3c2)cc(N2C[C@@H](C(=O)NC3CCCCC3)CC[C@H]2C)n1 | residual activity | % | 121

[a] CNC(=O)C1[C@H]2O[C@@](C)([C@@H]1N)n1c3ccccc3c3c4c(c5c6ccccc6n2c5c31)C(=O)NC4 (stereo not given in full)
[b] COc1cc(O)c2c(c1)[C@H]1OC1C[C@H](O)[C@H](O)C(=O)/C=C\C[C@H](C)OC2=O (stereo not given in full)
Pick one: a or b . Which has the bigger residual activity number? # respond with the chosen item's label
b

----------
- system.under.test: UniProt Q9HC98
- method.notes: radiometric filter-binding kinase assay
- condition.summary: compound 10.0 µM
attribute.measured: residual activity (%)

Examples from the recorded data:
compound | val
C=CC(=O)N1CCC[C@@H](n2nc(-c3ccc(Oc4ccccc4)cc3)c3c(N)ncnc32)C1 | 93
CN1C(=O)[C@@H](Cc2c[nH]c3ccccc23)NC1=S | 119
O=S(=O)(c1ccc(F)c2nonc12)N1CCN(c2ncc(C(F)(F)F)cc2Cl)CC1 | 78

[A] Cn1nc(Nc2ccc(F)cc2)c2c(N)ncnc21
[B] O=c1c(O)c(-c2ccc(O)c(O)c2)oc2cc(O)c(O)c(O)c12
[C] NC(=O)c1cc(-c2ccnc(NC3CCCCC3)c2)nc(N2CCNCC2)c1
Please rank these compounds by residual activity in descending order. Answer with the labels in sequence, matching the requested order.
A, C, B
(A: 95%, C: 42%, B: 21%)

----------
- system.under.test: CDK2 CCNA2 (human) (UniProt P20248+P24941)
- method.notes: radiometric filter-binding kinase assay
- condition.summary: compound 10.0 µM
attribute.measured: residual activity (%)

Examples from the recorded data:
molecule | residual activity [%]
O=C(O)c1ccc(-c2c[nH]c3ncc(-c4ccccc4)cc23)cc1C1CCCC1 | 0
CCCC(CCC)C(=O)O | 76
Cc1ccc2c(c1)C(=O)[C@@]1(O)CCN(c3ccccc3)C1=N2 | 116
O=C(N[C@@H](COc1ccc2[nH]c(=O)[nH]c2c1)c1ccccc1)c1cccn(Cc2ccc(F)c(F)c2)c1=O | 95
CCc1cncnc1N1CCN(Cc2nc3cc(C(F)(F)F)ccc3[nH]2)CC1 | 88

[P] CCNc1nc(Nc2cc(F)c(C(=O)N3CCOCC3)cc2OC)ncc1C(F)(F)F
[Q] O=c1c(O)c(-c2ccc(O)c(O)c2)oc2cc(O)c(O)c(O)c12
Given the listed items, does P or Q have the lesser reported residual activity? # respond with the chosen item's label
Q

[1] Cc1ccc(-c2ccc3c(ccc4sc5c(c43)NC[C@@H](C)NC5=O)n2)cn1
[2] O=C1Nc2nc(-c3c(O)cccc3OCC3CC3)cc(C3CCCNC3)c2CO1 (stereo not given)
[3] CC(C)C[C@H](NC(=O)CNC(=O)c1cc(Cl)ccc1Cl)B1OC(=O)CC(CC(=O)O)(C(=O)O)O1 (stereo not given in full)
Ascending by residual activity, please: list the molecules accordingly. Answer with the labels in sequence, matching the requested order.
2, 1, 3

----------
- system.under.test: MAP3K1 (human)
- method.notes: radiometric filter-binding kinase assay
- condition.summary: compound 10.0 µM
attribute.measured: residual activity (%)

Examples from the recorded data:
molecule | val
CC(C)(C#N)c1ccc(N2C(=O)OCc3cnc4ccc(-c5cnc6ccccc6c5)cc4c32)cc1 | 85
O=C(N[C@@H](COc1ccc2[nH]c(=O)[nH]c2c1)c1ccccc1)c1cccn(Cc2ccc(F)c(F)c2)c1=O | 112

[P] COc1cc(C(=O)N2CCOCC2)c(F)cc1Nc1ncc(C(F)(F)F)c(NC2CC2)n1
[Q] c1ccc2c(-c3cnn4cc(-c5ccc(N6CCNCC6)cc5)cnc34)ccnc2c1
Pick one: P or Q . Which has the bigger residual activity number? # respond with the chosen item's label
P
(P: 109%, Q: 60%)

----------
- system.under.test: TBK1 (human) (UniProt Q9UHD2)
- Sequence (Q9UHD2 whole entry, looked up): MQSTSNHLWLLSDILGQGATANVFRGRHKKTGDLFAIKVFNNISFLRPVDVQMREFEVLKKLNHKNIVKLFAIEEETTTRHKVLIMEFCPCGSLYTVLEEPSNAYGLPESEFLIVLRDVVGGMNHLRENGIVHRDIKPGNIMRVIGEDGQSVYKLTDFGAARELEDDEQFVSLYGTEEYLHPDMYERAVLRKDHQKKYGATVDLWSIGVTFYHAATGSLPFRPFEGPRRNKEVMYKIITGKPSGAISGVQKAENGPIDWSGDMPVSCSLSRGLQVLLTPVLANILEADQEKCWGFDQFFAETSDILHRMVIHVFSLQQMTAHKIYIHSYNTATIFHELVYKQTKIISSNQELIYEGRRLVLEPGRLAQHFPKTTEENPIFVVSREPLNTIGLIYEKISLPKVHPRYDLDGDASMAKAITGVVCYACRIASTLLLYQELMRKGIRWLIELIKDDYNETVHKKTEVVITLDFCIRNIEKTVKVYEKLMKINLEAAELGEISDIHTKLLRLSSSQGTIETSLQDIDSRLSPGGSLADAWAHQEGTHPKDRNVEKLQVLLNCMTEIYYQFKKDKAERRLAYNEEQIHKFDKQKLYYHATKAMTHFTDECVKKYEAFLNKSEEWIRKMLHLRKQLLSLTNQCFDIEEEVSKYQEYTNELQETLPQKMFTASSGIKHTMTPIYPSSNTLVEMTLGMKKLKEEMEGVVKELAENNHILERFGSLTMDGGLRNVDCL
- method.notes: radiometric filter-binding kinase assay
- condition.summary: compound 10.0 µM
attribute.measured: residual activity (%)

[A] O=C1NC(=S)N[C@@H]1Cc1c[nH]c2ccccc12
[B] NC(=O)Nc1ccc2c(c1)/C(=C/c1cc(-c3cccnc3)c[nH]1)C(=O)N2
Given the listed items, does A or B have the lesser reported residual activity? # respond with the chosen item's label
B

----------
- system.under.test: PIM1 (human) (UniProt P11309)
- Sequence (P11309 whole entry, looked up): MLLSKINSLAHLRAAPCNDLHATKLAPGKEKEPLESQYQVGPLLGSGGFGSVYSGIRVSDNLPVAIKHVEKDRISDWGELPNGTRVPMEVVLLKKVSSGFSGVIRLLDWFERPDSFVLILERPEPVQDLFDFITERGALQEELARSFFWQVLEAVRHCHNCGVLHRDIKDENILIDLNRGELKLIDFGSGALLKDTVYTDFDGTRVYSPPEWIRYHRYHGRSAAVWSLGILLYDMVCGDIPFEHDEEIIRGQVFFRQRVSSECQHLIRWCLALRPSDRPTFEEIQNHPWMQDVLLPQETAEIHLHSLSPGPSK
- method.notes: radiometric filter-binding kinase assay
- condition.summary: compound 1.0 µM
attribute.measured: residual activity (%)

Examples from the recorded data:
chemical.smiles | residual activity (%)
COc1ccc(-n2ncc3cnc(Nc4cc(OC)c(OC)c(OCCCN5CCN(C)CC5)c4)nc32)cc1 | 62
Cc1cccc(Nc2nn(C)c3ncnc(N)c23)c1 | 127
NC(=O)c1ccc(-c2ccc(Oc3cncc4sc(-c5nn[nH]n5)cc34)cc2)cc1 | 70

[A] NC(=O)c1cc2c(-c3cccc(-c4ccccc4)c3)cnc(N)c2s1
[B] O=C(Nc1ccccc1-c1cn2c(CN3CCNCC3)csc2n1)c1cnc2ccccc2n1
Given the listed items, does A or B have the lesser reported residual activity? # respond with the chosen item's label
B
(B: 18%, A: 89%)

----------
- system.under.test: MINK1 (human)
- method.notes: radiometric filter-binding kinase assay
- condition.summary: compound 10.0 µM
attribute.measured: residual activity (%)

[I] O=c1c(O)c(-c2ccc(O)c(O)c2)oc2cc(O)c(O)c(O)c12
[II] CC1=C(CO)C(=O)O[C@@H]([C@@H](C)[C@H]2CC[C@H]3[C@@H]4C[C@H]5O[C@]56[C@@H](O)C=CC(=O)[C@]6(C)C4CC[C@]23C)C1 (some centres undefined)
[III] O=C(O)c1ccc(-c2c[nH]c3ncc(-c4ccccc4)cc23)cc1C1CCCC1
Rank the 3 compounds shown above by residual activity, smallest number first. Answer with the labels in sequence, matching the requested order.
III, I, II
